Target: Rat brain protein farnesyltransferase (Rattus norvegicus, UniProt Q02293+Q04631)
Construct: The enzyme is purified according to Reiss, Y., et al., Cell, 62: 81-88 (1990), utilizing steps one through three; from tissue; host or cells: rat brain
Test: In vitro inhibition of protein farnesyltransferase, Amersham scintillation proximity assay with biotin-K Ras B fragment
Assay type: biochemical
Conditions: read-out: % inhibition at 1 × 10^−7 M
Structures can show the parent of a compound that is named as a salt.
measure.name: inhibition at 0.1 µM (%)
Write down the numeric answer in % and omit the unit.

>>> df
                                   compound                                       tgt          measure_name  quantitative_result
0  CSCC[C@H](NC(=O)c1ccc(CCc2cncc3ccccc23)cc1-c1ccccc1C)C(=O)O [Example 492, Lithium Salt]  Rat brain protein farnesyltransferase (Rattus norvegicus, UniProt Q02293+Q04631)  inhibition at 0.1 µM                   95

(Q) Provide measured inhibition at 0.1 µM value, entry: CSCC[C@H](NC(=O)c1ccc(/C=C/c2cncc3ccccc23)cc1-c1ccccc1C)C(=O)O (stereo in doubt) [Example 491, Lithium Salt]
(A) 94

(Q) Provide measured inhibition at 0.1 µM value, entry: CSCC[C@H](NC(=O)c1ccc(CCc2cncc(Cc3ccccc3)c2)cc1-c1ccccc1C)C(=O)O [Example 799, Lithium Salt]
(A) 96

(Q) Provide measured inhibition at 0.1 µM value, entry: CSCC[C@H](NC(=O)c1ccc(/C=C/c2cnc3ccccc3c2)cc1-c1ccccc1C)C(=O)O (stereo in doubt) [Example 487, Lithium Salt]
(A) 81

(Q) Provide measured inhibition at 0.1 µM value, entry: CSCC[C@H](NC(=O)c1ccc(C=Cc2ccc(Oc3ccccc3)nc2)cc1-c1ccccc1C)C(=O)O [Example 800, Lithium Salt]
(A) 74

(Q) Provide measured inhibition at 0.1 µM value, entry: Cc1ccccc1-c1cc(CCc2cnc3ccccc3c2)ccc1C(=O)N[C@@H](CC[S+](C)[O-])C(=O)O (stereo in doubt) [Example 490, Lithium Salt]
(A) 70
